# SUBJECT_OF_TEST: thymidine phosphorylase (TP) (Escherichia coli)
# Construct: purchased Sigma Aldrich, USA; host or cells: E. coli
# ASSAY_SUMMARY: Kinetic studies on thymidine phosphorylase (Lineweaver-Burk, secondary re-plot, Dixon plot)
# Format: biochemical, E. coli
# TEST_CONDITIONS: from Lineweaver-Burk plot; thymidine as variable substrate
READOUT_LABEL: Inhibition Type

>>> result("O=c1[nH]c(=O)c2cc[nH]c2[nH]1 [7-Deazaxanthine, reference compound]")
"Non-competitive"
>>> result("O=C(NN=Cc1cc(Br)cc(Br)c1O)c1ccc(O)cc1")
"Non-competitive"
>>> result("O=C(N/N=C/c1ccc(Br)cc1)c1ccc(O)cc1")
"Uncompetitive"
>>> result("C/C(=N\\NC(=O)c1ccc(O)cc1)c1c(O)cccc1O")
"Uncompetitive"
>>> result("O=C(NN=Cc1ccc(Cl)cc1)c1ccc(O)cc1")
"Uncompetitive"
>>> result("CC/C(=N\\NC(=O)c1ccc(O)cc1)c1cc(O)ccc1O")
"Uncompetitive"
>>> result("O=C(N/N=C/c1ccc(O)c(O)c1)c1ccc(O)cc1")
"Uncompetitive"

====

# SUBJECT_OF_TEST: thymidine phosphorylase (TP) (Escherichia coli, UniProt P07650)
# Construct: purchased Sigma Aldrich, USA; host or cells: E. coli
# Sequence (P07650 whole entry): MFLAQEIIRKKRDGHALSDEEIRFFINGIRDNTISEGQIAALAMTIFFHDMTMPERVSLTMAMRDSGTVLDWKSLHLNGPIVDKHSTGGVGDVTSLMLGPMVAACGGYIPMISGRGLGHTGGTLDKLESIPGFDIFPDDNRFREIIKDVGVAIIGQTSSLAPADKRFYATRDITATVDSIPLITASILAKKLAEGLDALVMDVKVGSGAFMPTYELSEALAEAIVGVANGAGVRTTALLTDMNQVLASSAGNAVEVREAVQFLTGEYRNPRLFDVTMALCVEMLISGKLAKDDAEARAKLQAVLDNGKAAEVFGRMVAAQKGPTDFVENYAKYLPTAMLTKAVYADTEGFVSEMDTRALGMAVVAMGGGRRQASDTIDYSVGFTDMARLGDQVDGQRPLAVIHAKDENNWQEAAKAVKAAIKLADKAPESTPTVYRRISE
# ASSAY_SUMMARY: Thymidine phosphorylase inhibition assay (spectrophotometric, 290 nm)
# Format: biochemical, E. coli
# TEST_CONDITIONS: recombinant TP expressed in E. coli; substrate thymidine; pH 7.0, 30°C; N.A. = not active; read-out: IC50 (μM ± SEM), thymidine phosphorylase inhibition
# maps each entry to its IC50
READOUT_LABEL: IC50 (µM)

>>> numeric_value("CC/C(=N\\NC(=O)c1ccc(O)cc1)c1cc(O)ccc1O")
173
>>> numeric_value("O=C(NN=Cc1ccc(Cl)cc1)c1ccc(O)cc1")
159
>>> numeric_value("O=C(NN=Cc1cc(Br)cc(Br)c1O)c1ccc(O)cc1")
6.8
>>> numeric_value("COc1cccc(/C=N/NC(=O)c2ccc(O)cc2)c1O")
181

Values were extracted from paper PMC6984732.
